Measured values drawn from patent US20230348369A1 for this set.

System tested: human NAMPT (Homo sapiens, UniProt P43490)
Sequence (P43490 whole entry): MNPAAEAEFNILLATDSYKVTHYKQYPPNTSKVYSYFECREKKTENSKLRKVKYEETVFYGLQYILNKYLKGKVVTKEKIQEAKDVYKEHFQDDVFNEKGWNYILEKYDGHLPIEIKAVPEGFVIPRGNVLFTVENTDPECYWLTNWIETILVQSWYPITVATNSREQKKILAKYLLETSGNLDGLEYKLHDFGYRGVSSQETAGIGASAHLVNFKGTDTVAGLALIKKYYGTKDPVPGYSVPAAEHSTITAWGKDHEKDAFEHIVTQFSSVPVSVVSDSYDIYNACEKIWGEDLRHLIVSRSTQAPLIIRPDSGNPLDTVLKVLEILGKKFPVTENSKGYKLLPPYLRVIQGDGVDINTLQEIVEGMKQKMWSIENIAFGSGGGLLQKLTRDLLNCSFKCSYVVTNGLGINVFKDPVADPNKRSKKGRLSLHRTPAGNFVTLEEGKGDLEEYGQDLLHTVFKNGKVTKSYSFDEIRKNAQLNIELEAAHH
Method notes: Human recombinant enzyme assay (NMN fluorescence biochemical assay, activation of NAMPT)
Details: Table A; human recombinant NAMPT, NMN formation, 60 min
AC1.4 Human for assorted molecules

{"Molecule": "CN(C(=O)CCCCCNC(=O)NCc1ccncc1)c1ccccc1F", "System tested": "human NAMPT (Homo sapiens, UniProt P43490)", "AC1.4 Human / µM": 0.2}
{"Molecule": "COc1ccc(C(=O)N2CC[C@]3(C2)C[C@H](NC(=O)NCc2ccc(Cl)cc2)C3)cc1", "System tested": "human NAMPT (Homo sapiens, UniProt P43490)", "AC1.4 Human / µM": 15.9}
{"Molecule": "COc1ccc(CNC(=O)NC2CC3(C2)CC(C(=O)N2CCC2c2ccccc2)C3)cc1 (centres unmarked)", "System tested": "human NAMPT (Homo sapiens, UniProt P43490)", "AC1.4 Human / µM": 4.7}
{"Molecule": "O=C(NCc1ccc(Cl)cc1)NC1CC2(C1)CC(NC(=O)c1ccncc1)C2 (centres unmarked)", "System tested": "human NAMPT (Homo sapiens, UniProt P43490)", "AC1.4 Human / µM": 11.6}
{"Molecule": "COc1ccc(CNC(=O)NC2CC3(C2)CC(C(=O)N2CCC[C@@H]2c2cccnc2)C3)cc1 (some centres unmarked)", "System tested": "human NAMPT (Homo sapiens, UniProt P43490)", "AC1.4 Human / µM": 11.2}
{"Molecule": "COc1ccc(CNC(=O)NC2CC3(C2)CN(S(=O)(=O)CCc2ccccc2Cl)C3)cc1", "System tested": "human NAMPT (Homo sapiens, UniProt P43490)", "AC1.4 Human / µM": 3.0}
{"Molecule": "COc1ccc(CNC(=O)NC2CC3(C2)CC(C(=O)N2CCCc4c(F)cccc42)C3)cc1 (centres unmarked)", "System tested": "human NAMPT (Homo sapiens, UniProt P43490)", "AC1.4 Human / µM": 0.1}
{"Molecule": "O=C(NCc1ccc(Cl)cc1)NC1CC2(C1)CC(NC(=O)c1cccc(O)c1)C2 (centres unmarked)", "System tested": "human NAMPT (Homo sapiens, UniProt P43490)", "AC1.4 Human / µM": 17.1}
{"Molecule": "O=C(CCCCCNC(=O)NCc1ccc(Cl)cc1)Nc1ccncc1", "System tested": "human NAMPT (Homo sapiens, UniProt P43490)", "AC1.4 Human / µM": 1.4}
{"Molecule": "COc1ccc(CNC(=O)NC2CC3(CC(CN4CCCC4c4ccccc4)C3)C2)cc1 (centres unmarked)", "System tested": "human NAMPT (Homo sapiens, UniProt P43490)", "AC1.4 Human / µM": 4.2}
{"Molecule": "COc1ccc(CNC(=O)NC2CC3(C2)CC(C(=O)NC2CC(CO)c4ccccc42)C3)cc1 (centres unmarked)", "System tested": "human NAMPT (Homo sapiens, UniProt P43490)", "AC1.4 Human / µM": 6.3}
{"Molecule": "O=C(NCc1ccc(Cl)cc1)NC1CC2(CC(CC(=O)N3CCC[C@H]3CO)C2)C1 (some centres unmarked)", "System tested": "human NAMPT (Homo sapiens, UniProt P43490)", "AC1.4 Human / µM": 4.1}
{"Molecule": "N#Cc1cnn(CC2CC3(C2)CC(NC(=O)NCc2ccc(Cl)cc2)C3)c1 (centres unmarked)", "System tested": "human NAMPT (Homo sapiens, UniProt P43490)", "AC1.4 Human / µM": 1.8}
{"Molecule": "O=C(NCCCCC(=O)N1CCCc2ccccc21)NCc1ccc(Cl)cc1", "System tested": "human NAMPT (Homo sapiens, UniProt P43490)", "AC1.4 Human / µM": 1.0}
{"Molecule": "COc1ccc(CNC(=O)NC2CC3(CC(Cc4ccncc4)C3)C2)cc1 (centres unmarked)", "System tested": "human NAMPT (Homo sapiens, UniProt P43490)", "AC1.4 Human / µM": 0.1}
{"Molecule": "COc1ccc(CNC(=O)NC2CC3(C2)CC(C(=O)N2CCN(C4COC4)CC2)C3)cc1 (centres unmarked)", "System tested": "human NAMPT (Homo sapiens, UniProt P43490)", "AC1.4 Human / µM": 1.0}
{"Molecule": "COc1ccc(CNC(=O)NCCCCCOc2ccccc2)cc1", "System tested": "human NAMPT (Homo sapiens, UniProt P43490)", "AC1.4 Human / µM": 0.3}
